- System: β-galactosidase in CMV-LacZ C2C12 myotubes
- protocol-description: CMV-LacZ secondary screen in C2C12 myotubes (β-Gal stabilizing assay)
- Type: cell-based, mouse
- condition-summary: 10 uM; C2C12 CMV-LacZ myotubes; fold relative to DMSO
CMV-LACZ in Myotubes, signal relative to DMSO strictly less than 1 = TRUE. Otherwise FALSE.

// known answers, use as guide
INSERT INTO results (molecule, assigned_category) VALUES
  ('Cc1cc(-c2ccccc2)n2nc(N)nc2n1 [MLS000122180-01]', 'TRUE'),
  ('O=C(O)C(Cc1ccc(O)cc1)N1C(=O)c2ccccc2C1=O (centres unmarked) [MLS001165394-01]', 'TRUE');

Task item: A record lists CCc1ccc(Sc2cc(C(=O)NCCN3CCOCC3)c3ccccc3n2)cc1 [MLS000584511-01] . Is its CMV-LACZ in Myotubes, signal relative to DMSO below 1?
Reply: TRUE

Task item: A record lists N#Cc1ccc(OCC(O)CS(=O)(=O)c2ccccc2)cc1 (centres unmarked) [MLS000721584-01] . Is its CMV-LACZ in Myotubes, signal relative to DMSO below 1?
Reply: TRUE

Task item: A record lists Cc1cc2ccccc2n2c(SCC(=O)NCc3cccs3)nnc12 [MLS000526364-01] . Is its CMV-LACZ in Myotubes, signal relative to DMSO below 1?
Reply: TRUE

Task item: A record lists CCOC(=O)c1cc(-c2cccs2)nc2c1c(C)nn2-c1ccccn1 [MLS001006516-01] . Is its CMV-LACZ in Myotubes, signal relative to DMSO below 1?
Reply: TRUE

Task item: A record lists Cc1ccc(C2=C(CC(=O)O)C(=O)CC2)cc1 [MLS000553673-01] . Is its CMV-LACZ in Myotubes, signal relative to DMSO below 1?
Reply: TRUE
